# Test system: P. mirabilis (ATCC29906)
# experimental protocol: Antibacterial strength (bacteriostatic reduction rate) by Methods 1 to 4, broth culture absorbance at 600 nm
# Format: cell-based
# measurement setup: Proteus mirabilis, amount of antibacterial composition added 0.015 g in 25 ml broth, 3,000 CFU/ml, 16 hours, 35° C., read-out: Antibacterial strength (%) Method 1
Form field: inhibition of growth at 600 µg/mL (one value per entry).
Record the value in %, omitting the unit from your answer.

C=CC(=O)OCCCC[N+](CCCCCCCC)(CCCCCCCC)CCCCCCCC ... 99.9

Query block: Tell me the measured inhibition of growth at 600 µg/mL of C=C(C)C(=O)OCC[N+](CCCCCC)(CCCCCC)CCCCCCCCCC , please.
Result block: 99.9

Query block: Tell me the measured inhibition of growth at 600 µg/mL of C=CC(=O)OCC[N+](CCCC)(CCCC)CCCCCCCC , please.
Result block: 99.9

Query block: Tell me the measured inhibition of growth at 600 µg/mL of C=CC(=O)OCC[N+](CCCC)(CCCC)CCCCCCCCCC , please.
Result block: 99.9

Query block: Tell me the measured inhibition of growth at 600 µg/mL of C=CC(=O)OCC[N+](CCCC)(CCCC)CCCCCC [Comparative Monomer 1, reference compound] , please.
Result block: 38.8

Query block: Tell me the measured inhibition of growth at 600 µg/mL of C=C(C)C(=O)OCC[N+](CCCC)(CCCCCCCCCC)CCCCCCCCCC , please.
Result block: 99.9

Query block: Tell me the measured inhibition of growth at 600 µg/mL of C=CC(=O)OCC[N+](CCCCCCCC)(CCCCCCCC)CCCCCCCC , please.
Result block: 99.9

Query block: Tell me the measured inhibition of growth at 600 µg/mL of C=C(C)C(=O)OCC[N+](CCCC)(CCCCCCCC)CCCCCCCCCC (stereo not drawn) , please.
Result block: 99.9

Query block: Tell me the measured inhibition of growth at 600 µg/mL of C=CC(=O)OCCCC[N+](CCCC)(CCCC)CCCCCCCC , please.
Result block: 99.9

====

Form field: LD50 (one value per entry).
# experimental protocol: Acute oral toxicity dose LD50 by 3T3 Neutral Red Uptake (NRU) assay (OECD Guidance Document No 129)
# Type: cell-based
# measurement setup: mouse, 3T3 cells, po, calculated from 3T3 NRU assay
# Experimental: The acute oral toxicity dose LD50 and acute percutaneous toxicity dose LD50 were measured by 3T3 Neutral Red Uptake (NRU) assay (OECD Guidance Document No 129). Specifically, the acute oral toxicity dose LD50 and acute percutaneous toxicity dose LD50 can be calculated by the following method: […]
Record the value in mg/kg, omitting the unit from your answer.

C=C(C)C(=O)OCC[N+](CCCC)(CCCCCCCCCC)CCCCCCCCCC ... 869
C=CC(=O)OCC[N+](CCCCCCCCCCCCCC)(CCCCCCCCCCCCCC)CCCCCCCCCCCCCC [Comparative Monomer 2, reference compound] ... 231
C=CC(=O)OCC[N+](CCCC)(CCCC)CCCCCCCCCCCC ... 843

# context switch: different compound, same LD50
Query block: Tell me the measured LD50 of C=CC(=O)OCC[N+](CCCC)(CCCC)CCCCCC [Comparative Monomer 1, reference compound] , please.
Result block: 2360

====

# experimental protocol: Acute oral toxicity dose LD50 by 3T3 Neutral Red Uptake (NRU) assay (OECD Guidance Document No 129)
# Format: cell-based
# measurement setup: mouse, 3T3 cells, po, calculated from 3T3 NRU assay
measure: LD50

See these solved cases before continuing.
C=C(C)C(=O)OCC[N+](CCCC)(CCCCCC)CCCCCCCCCC (stereo not shown) ... ≥ 1000 mg/kg
C=CC(=O)OCC[N+](CCCC)(CCCC)CCCCCCCC ... ≥ 1000 mg/kg
C=C(C)C(=O)OCC[N+](CCCC)(CCCCCCCC)CCCCCCCCCC (stereo not shown) ... 998 mg/kg

Query block: Tell me the measured LD50 of C=CC(=O)OCCCC[N+](CCCC)(CCCC)CCCCCCCC , please.
Result block: ≥ 1000 mg/kg

====

Form field: Acute oral toxicity dose (mg/Kg) LD50 (one value per entry).
# Test system: 3T3
# experimental protocol: Acute oral toxicity dose LD50 by 3T3 Neutral Red Uptake (NRU) assay (OECD Guidance Document No 129)
# Type: cell-based
# measurement setup: calculated from 3T3 NRU assay

See these solved cases before continuing.
C=CC(=O)OCCCC[N+](CCCC)(CCCC)CCCCCCCC [Monomer 9] ... 1,498 mg/Kg
C=CC(=O)OCC[N+](CCCC)(CCCC)CCCCCCCC [Monomer 1] ... 1,708 mg/Kg

Query block: Tell me the measured Acute oral toxicity dose (mg/Kg) LD50 of C=C(C)C(=O)OCC[N+](CCCCCC)(CCCCCC)CCCCCCCCCC [Monomer 5] , please.
Result block: 1,078 mg/Kg

Query block: Tell me the measured Acute oral toxicity dose (mg/Kg) LD50 of C=CC(=O)OCC[N+](CCCCCCCC)(CCCCCCCC)CCCCCCCC [Monomer 4] , please.
Result block: 1,442 mg/Kg

Query block: Tell me the measured Acute oral toxicity dose (mg/Kg) LD50 of C=CC(=O)OCCCC[N+](CCCCCCCC)(CCCCCCCC)CCCCCCCC [Monomer 10] , please.
Result block: 1,242 mg/Kg

Query block: Tell me the measured Acute oral toxicity dose (mg/Kg) LD50 of C=CC(=O)OCC[N+](CCCC)(CCCC)CCCCCCCCCC [Monomer 2] , please.
Result block: 1,369 mg/Kg

Query block: Tell me the measured Acute oral toxicity dose (mg/Kg) LD50 of C=C(C)C(=O)OCC[N+](CCCC)(CCCCCC)CCCCCCCCCC (stereo not shown) [Monomer 6] , please.
Result block: 1,111 mg/Kg

====

# Test system: P. mirabilis (ATCC29906)
# experimental protocol: Antibacterial strength (bacteriostatic reduction rate) by Methods 1 to 4, broth culture absorbance at 600 nm
# Assay type: cell-based
# measurement setup: Proteus mirabilis, amount of antibacterial composition added 0.015 g in 25 ml broth, 3,000 CFU/ml, 16 hours, 35° C., read-out: Antibacterial strength (%) Method 1
measure: inhibition of growth at 600 µg/mL (%)
Record the value in %, omitting the unit from your answer.

Query block: Value wanted: inhibition of growth at 600 µg/mL (P. mirabilis (ATCC29906)) of entry C=CC(=O)OCC[N+](CCCCCCCCCCCCCC)(CCCCCCCCCCCCCC)CCCCCCCCCCCCCC [Comparative Monomer 2, reference compound]
Result block: 99.9

Query block: Value wanted: inhibition of growth at 600 µg/mL (P. mirabilis (ATCC29906)) of entry C=C(C)C(=O)OCC[N+](CCCC)(CCCCCC)CCCCCCCCCC (stereo not drawn) [Monomer 6]
Result block: 99.9

Query block: Value wanted: inhibition of growth at 600 µg/mL (P. mirabilis (ATCC29906)) of entry C=CC(=O)OCC[N+](CCCC)(CCCC)CCCCCCCCCCCC [Monomer 3]
Result block: 99.9
